Recorded fold change of affinity, one value per entry.
Target: T1, Human CD3eg linker (human)
T1 construct: Single-chain construct; also called recombinant human CD3
T1 chain: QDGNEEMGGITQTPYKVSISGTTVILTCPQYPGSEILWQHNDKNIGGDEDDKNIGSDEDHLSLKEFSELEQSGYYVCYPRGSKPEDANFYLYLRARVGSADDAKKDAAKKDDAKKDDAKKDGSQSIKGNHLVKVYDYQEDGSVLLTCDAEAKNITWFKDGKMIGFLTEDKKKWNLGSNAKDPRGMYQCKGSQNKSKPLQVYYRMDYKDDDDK
Experiment: SPR; fold vs parent H183/L072
Please respond with the number in fold and leave the unit unwritten.

[
  {
    "binder": "H183/L072 VL N53P (antibody, name in Kabat numbering, V domains shown) VH: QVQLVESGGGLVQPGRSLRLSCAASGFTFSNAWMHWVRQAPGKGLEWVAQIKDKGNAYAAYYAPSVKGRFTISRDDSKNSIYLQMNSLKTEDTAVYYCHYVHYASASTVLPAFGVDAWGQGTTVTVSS VL: DIVMTQSPLSLPVTPGEPASISCQASQELVHMNRNTYLHWYQQKPGQAPRLLIYKVSPRFPGVPDRFSGSGSGTDFTLKISRVEAEDVGVYYCAQGTSVPFTFGQGTKLEIK",
    "quantitative.result": 0.6
  },
  {
    "binder": "H183/L072 VL M27eH (antibody, name in Kabat numbering, V domains shown) VH: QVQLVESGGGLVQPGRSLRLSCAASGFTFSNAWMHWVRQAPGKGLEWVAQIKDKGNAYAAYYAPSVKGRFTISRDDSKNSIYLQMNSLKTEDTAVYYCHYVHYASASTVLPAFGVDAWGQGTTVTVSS VL: DIVMTQSPLSLPVTPGEPASISCQASQELVHHNRNTYLHWYQQKPGQAPRLLIYKVSNRFPGVPDRFSGSGSGTDFTLKISRVEAEDVGVYYCAQGTSVPFTFGQGTKLEIK",
    "quantitative.result": 0.9
  },
  {
    "binder": "H183/L072 VL N53W (antibody, name in Kabat numbering, V domains shown) VH: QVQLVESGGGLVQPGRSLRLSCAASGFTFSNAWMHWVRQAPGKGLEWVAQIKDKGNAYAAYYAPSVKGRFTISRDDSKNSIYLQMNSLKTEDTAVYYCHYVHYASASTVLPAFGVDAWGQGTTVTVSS VL: DIVMTQSPLSLPVTPGEPASISCQASQELVHMNRNTYLHWYQQKPGQAPRLLIYKVSWRFPGVPDRFSGSGSGTDFTLKISRVEAEDVGVYYCAQGTSVPFTFGQGTKLEIK",
    "quantitative.result": 0.7
  },
  {
    "binder": "H183/L072 VL A25Q (antibody, name in Kabat numbering, V domains shown) VH: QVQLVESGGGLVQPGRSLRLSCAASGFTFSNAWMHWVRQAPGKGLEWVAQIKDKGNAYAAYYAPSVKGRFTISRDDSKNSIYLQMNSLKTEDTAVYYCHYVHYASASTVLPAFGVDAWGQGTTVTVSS VL: DIVMTQSPLSLPVTPGEPASISCQQSQELVHMNRNTYLHWYQQKPGQAPRLLIYKVSNRFPGVPDRFSGSGSGTDFTLKISRVEAEDVGVYYCAQGTSVPFTFGQGTKLEIK",
    "quantitative.result": 0
  }
]

Supply measured fold change of affinity of H183/L072 VL L33T (antibody, name in Kabat numbering, V domains shown) VH: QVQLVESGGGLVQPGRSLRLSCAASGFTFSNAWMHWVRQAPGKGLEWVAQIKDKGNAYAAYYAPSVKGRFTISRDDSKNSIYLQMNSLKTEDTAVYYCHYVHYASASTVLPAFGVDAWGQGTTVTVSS VL: DIVMTQSPLSLPVTPGEPASISCQASQELVHMNRNTYTHWYQQKPGQAPRLLIYKVSNRFPGVPDRFSGSGSGTDFTLKISRVEAEDVGVYYCAQGTSVPFTFGQGTKLEIK in your reply.
0.3

The origin of these recorded values is patent US20210388087A1.
